Assay: in vitro
Conditions: dog
measured_endpoint: CC50 (µM)
Output spec: scalar in µM, unitless text.

Worked examples follow.
compound | unit_descriptor | CC50
CC1(C)O[C@@H]2[C@H](O1)[C@@H](CO[C@@H]1C[C@@H](OCc3ccccc3)[C@H](OCc3ccccc3)[C@@H](CO)O1)O[C@H]2n1ccc(=O)n(C(=O)c2ccccc2)c1=O [IW7, reference compound] | µM | 123
CC1(C)O[C@@H]2[C@H](O1)[C@@H](CO[C@@H]1C[C@@H](OCc3ccccc3)[C@H](OCc3ccccc3)[C@@H](COCc3ccccc3)O1)O[C@H]2n1ccc(=O)[nH]c1=O [Compound 3] | µM | 407
O=c1ccn([C@@H]2O[C@H](CO[C@@H]3C[C@@H](O)[C@H](O)[C@@H](CO)O3)[C@@H](O)[C@H]2O)c(=O)[nH]1 [Compound 9] | µM | 800

Entry under test: CC(=O)O[C@H]1[C@H](C)O[C@H](OC[C@H]2O[C@@H](n3ccc(=O)[nH]c3=O)[C@@H]3OC(C)(C)O[C@@H]32)C[C@@H]1O[Si](C)(C)C(C)(C)C [Compound 1] . Its CC50 was 193

Taken from paper PMC5578090.
